Entry source: patent US12065436B2

- target of assay: bovine cardiac myofibrils (full-length cardiac myosin ATPase in the native sarcomere) (Bos taurus (Bovine))
- assay details: Skinned bovine cardiac myofibril ATPase assay (PK/LDH-coupled)
- Assay type: biochemical
- measurement setup: Ca2+ activating to 75% of maximal rate, concentration giving 15% inhibition
- Experimental: To evaluate the effect of compounds on the ATPase activity of full-length cardiac myosin in the context of the native sarcomere, skinned myofibril assays were performed. […] Small molecule agents were assessed for their ability to inhibit the steady-state ATPase activity of bovine cardiac myofibrils using pyruvate kinase and lactate dehydrogenase (PK/LDH)-coupled enzyme system. This assay regenerates myosin-produced ADP into ATP by oxidizing NADH, producing an absorbance change at 340 nm. […]
test readout: CDMF75 IC15 (nM)

Worked examples, 4 compounds total:
CCc1nc(-c2ccc3c(c2)CC[C@H]3NC(=O)c2cn[nH]c2)no1 ... 300
O=C(N[C@@H]1CCc2cc(-c3noc(C(F)F)n3)ccc21)c1cccc(CO)c1F ... 1600
CCc1nc(-c2ccc3c(c2)OCC3NC(=O)c2cnn(C)c2)no1 (centres unmarked) ... 700
CCc1cc(C(=O)N[C@@H]2CCc3cc(-c4noc(CC)n4)ccc32)ccn1 ... 600

[1] Cc1nn(C)cc1C(=O)N[C@@H]1CCc2cc(-c3noc(C(F)F)n3)ccc21
[2] COCc1nc(-c2ccc3c(c2)OC[C@H]3NC(=O)c2cccc(CO)c2)no1 [Compound 711]
[3] Cc1noc(-c2ccc3c(c2)CC[C@H]3NC(=O)c2cn(C)nc2C)n1
[4] [2H]C([2H])([2H])c1nc(-c2ccc3c(c2)CC[C@H]3NC(=O)c2ccc(=O)n(C)c2)no1
[Q] Sequence the entries by CDMF75 IC15, beginning with the highest number. Give the labels in the order requested.
[A] 4, 3, 2, 1

====

- target of assay: bovine cardiac myofibrils (full-length cardiac myosin ATPase in the native sarcomere) (Bos taurus (Bovine), UniProt Q9BE39)
- Sequence (Q9BE39 whole entry): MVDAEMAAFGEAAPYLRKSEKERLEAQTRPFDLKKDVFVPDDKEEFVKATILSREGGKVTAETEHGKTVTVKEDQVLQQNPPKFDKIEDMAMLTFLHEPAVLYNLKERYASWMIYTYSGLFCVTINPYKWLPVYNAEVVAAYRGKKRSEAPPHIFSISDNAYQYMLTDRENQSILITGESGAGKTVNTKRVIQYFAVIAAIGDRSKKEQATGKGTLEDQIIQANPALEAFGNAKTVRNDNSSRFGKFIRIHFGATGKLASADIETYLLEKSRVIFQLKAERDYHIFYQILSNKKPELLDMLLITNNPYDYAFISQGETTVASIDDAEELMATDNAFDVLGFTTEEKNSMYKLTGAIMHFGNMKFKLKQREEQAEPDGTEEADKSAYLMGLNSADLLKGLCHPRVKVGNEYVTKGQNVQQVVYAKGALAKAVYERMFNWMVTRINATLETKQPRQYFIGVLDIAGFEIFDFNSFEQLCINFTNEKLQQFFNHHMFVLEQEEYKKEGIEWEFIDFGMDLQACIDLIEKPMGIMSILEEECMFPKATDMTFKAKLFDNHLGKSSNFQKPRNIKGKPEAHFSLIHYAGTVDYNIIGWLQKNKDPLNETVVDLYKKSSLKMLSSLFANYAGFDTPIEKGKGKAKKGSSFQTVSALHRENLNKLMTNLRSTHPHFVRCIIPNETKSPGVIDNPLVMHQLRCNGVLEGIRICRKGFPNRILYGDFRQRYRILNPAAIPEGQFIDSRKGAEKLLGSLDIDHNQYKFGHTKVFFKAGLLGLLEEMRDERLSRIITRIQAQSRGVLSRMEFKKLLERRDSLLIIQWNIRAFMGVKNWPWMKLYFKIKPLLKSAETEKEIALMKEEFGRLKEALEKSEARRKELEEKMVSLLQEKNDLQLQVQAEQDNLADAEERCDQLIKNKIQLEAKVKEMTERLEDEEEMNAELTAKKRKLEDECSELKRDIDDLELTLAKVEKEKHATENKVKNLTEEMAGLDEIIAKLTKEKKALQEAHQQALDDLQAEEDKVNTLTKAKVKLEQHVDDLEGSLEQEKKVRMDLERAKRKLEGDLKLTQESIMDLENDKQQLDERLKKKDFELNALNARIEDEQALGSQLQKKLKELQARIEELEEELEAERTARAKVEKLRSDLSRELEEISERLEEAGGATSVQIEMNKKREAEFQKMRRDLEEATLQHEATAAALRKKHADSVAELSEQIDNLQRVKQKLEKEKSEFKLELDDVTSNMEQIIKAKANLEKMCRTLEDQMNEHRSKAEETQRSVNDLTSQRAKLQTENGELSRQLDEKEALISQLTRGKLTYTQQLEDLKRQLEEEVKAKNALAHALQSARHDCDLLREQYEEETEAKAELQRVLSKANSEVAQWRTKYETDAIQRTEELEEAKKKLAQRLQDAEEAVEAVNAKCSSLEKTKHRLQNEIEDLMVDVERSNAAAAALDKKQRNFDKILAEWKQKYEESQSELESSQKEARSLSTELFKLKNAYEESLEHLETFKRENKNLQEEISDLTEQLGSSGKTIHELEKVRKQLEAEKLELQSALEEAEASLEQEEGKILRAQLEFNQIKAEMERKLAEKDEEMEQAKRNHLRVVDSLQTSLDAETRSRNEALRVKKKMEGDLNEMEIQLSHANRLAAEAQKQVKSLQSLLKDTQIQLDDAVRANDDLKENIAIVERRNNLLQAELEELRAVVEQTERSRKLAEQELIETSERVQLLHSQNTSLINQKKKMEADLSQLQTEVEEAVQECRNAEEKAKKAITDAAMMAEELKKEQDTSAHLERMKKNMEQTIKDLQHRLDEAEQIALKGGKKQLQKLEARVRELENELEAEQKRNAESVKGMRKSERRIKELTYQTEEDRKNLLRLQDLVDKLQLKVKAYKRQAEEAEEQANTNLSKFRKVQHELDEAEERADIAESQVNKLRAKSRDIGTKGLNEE
- Sequence (P85100 whole entry partner): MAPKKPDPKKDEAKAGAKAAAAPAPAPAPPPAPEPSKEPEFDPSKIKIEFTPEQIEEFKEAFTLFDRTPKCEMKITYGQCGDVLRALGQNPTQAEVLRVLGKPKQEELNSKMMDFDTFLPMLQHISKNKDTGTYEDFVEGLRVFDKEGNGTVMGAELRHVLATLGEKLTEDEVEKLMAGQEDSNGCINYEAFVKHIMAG
- Sequence (Q3SZE5 whole entry partner): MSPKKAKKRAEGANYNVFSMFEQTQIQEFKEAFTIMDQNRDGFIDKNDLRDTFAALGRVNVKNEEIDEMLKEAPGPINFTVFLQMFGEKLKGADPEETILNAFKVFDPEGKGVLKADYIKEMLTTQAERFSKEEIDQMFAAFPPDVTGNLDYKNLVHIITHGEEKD
- assay details: Skinned bovine cardiac myofibril ATPase assay (PK/LDH-coupled)
- measurement setup: Ca2+ activating to 75% of maximal rate, read-out: CDMF75 IC50
test readout: IC50 (nM)

[A] CCc1nc(-c2ccc3c(c2)OC[C@H]3NC(=O)N2CC(O)C2)no1
[B] Cc1nc(C)c(C(=O)NC2COc3cc(-c4noc(C(F)F)n4)ccc32)o1 (stereo not drawn)
[Q] Short answer wanted: higher IC50, A or B ? Please identify the chosen entry by its label.
[A] A
(A: 10500 nM, B: 3800 nM)

[I] Cc1noc(-c2ccc3c(c2)OC[C@H]3NC(=O)c2cnn(C)c2)n1
[II] COCc1nc(-c2ccc3c(c2)CC[C@H]3NC(=O)c2ccnn2C)no1
[Q] Which is greater in IC50, the first item I or the second item II ? Indicate which entry you chose by stating its label.
[A] I
(I: 6500 nM, II: 1400 nM)

[1] CCc1nc(-c2ccc3c(c2)OC[C@H]3NC(=O)c2conc2C)no1
[2] Cc1cc(-c2ccc3c(c2)OC[C@H]3NC(=O)c2ocnc2C)no1
[3] COCc1nc(-c2ccc3c(c2)CC[C@H]3NC(=O)OC)no1
[Q] Hey, quick one: sort these by IC50, low to high? In plain terms: list the labels in the order you were asked to.
[A] 1, 2, 3

====

- target of assay: bovine cardiac myofibrils (full-length cardiac myosin ATPase in the native sarcomere) (Bos taurus (Bovine))
- assay details: Skinned bovine cardiac myofibril ATPase assay (PK/LDH-coupled)
- measurement setup: Ca2+ activating to 75% of maximal rate, read-out: CDMF75 IC50
pIC50: −log10 of the molar value.
test readout: pIC50

Some solved entries appear below for comparison.
Cc1nc(-c2ccc3c(c2)OC[C@H]3NC(=O)c2ccnc(CO)c2)no1 ... 5.43
[2H]C([2H])([2H])c1nc(-c2ccc3c(c2)OC[C@H]3NC(=O)c2ccnn2C)no1 ... 5.72
Cc1nc(-c2ccc3c(c2)CC[C@H]3NC(=O)c2ccnc(C(F)F)c2)no1 ... 5.49

[I] Cc1noc(-c2ccc3c(c2)CC[C@H]3NC(=O)c2ccnn2C)n1
[II] O=C(N[C@@H]1CCc2cc(-c3noc(C4CCC4)n3)ccc21)c1nnn(Cc2ccccc2)n1
[III] COC(C)c1nc(-c2ccc3c(c2)CC[C@H]3NC(=O)c2cnn(C)c2)no1 (some centres unmarked)
[Q] # desc sort on pIC50 across 3 compounds A complete answer lists every label in the requested sequence.
[A] I, II, III
